Cited source: the supplement of paper PMC6757056

B1: library; a variant is named by its letters at N, in order (parent)
chain: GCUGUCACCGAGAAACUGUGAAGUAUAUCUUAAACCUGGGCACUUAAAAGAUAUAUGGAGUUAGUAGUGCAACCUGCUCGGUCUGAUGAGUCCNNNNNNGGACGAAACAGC

# Variants of: B1
# assay-procedure: normalized RNA/DNA level with ligand (relative to sTRSVctl = 100) (log10 (% of sTRSVctl)); HEK293T; ligand: cyclic di-GMP (c-di-GMP-II aptamer); ligand concentration (+) RNA-Seq: 1 mM; higher = less ribozyme self-cleavage, higher mRNA level
# condition-description: reporter: mCherry (pCS4076), ligand present: yes
Each entry below carries its reported normalized RNA/DNA level with ligand (log10).
API note: the answer field is a bare number with no unit suffix.

For orientation, consider the following solved cases.
[Q] Please indicate normalized RNA/DNA level with ligand (log10) recorded for GUUUAU
[A] 1.81

[Q] Please indicate normalized RNA/DNA level with ligand (log10) recorded for AUUCCC
[A] 1.89

[Q] Please indicate normalized RNA/DNA level with ligand (log10) recorded for UAAACC
[A] 1.85

[Q] Please indicate normalized RNA/DNA level with ligand (log10) recorded for CACCAU
[A] 1.75

[Q] Please indicate normalized RNA/DNA level with ligand (log10) recorded for AAACGC
[A] 1.85

New cases:
[Q] Please indicate normalized RNA/DNA level with ligand (log10) recorded for CUCAGC
[A] 1.89

[Q] Please indicate normalized RNA/DNA level with ligand (log10) recorded for CACAAU
[A] 1.68

[Q] Please indicate normalized RNA/DNA level with ligand (log10) recorded for GGCACG
[A] 1.88

[Q] Please indicate normalized RNA/DNA level with ligand (log10) recorded for CACGAC
[A] 1.83

[Q] Please indicate normalized RNA/DNA level with ligand (log10) recorded for GCGCCG
[A] 1.9

[Q] Please indicate normalized RNA/DNA level with ligand (log10) recorded for ACAUCU
[A] 1.76

[Q] Please indicate normalized RNA/DNA level with ligand (log10) recorded for GGCUAG
[A] 1.68
